So I've got a bunch of compounds here, and I need their CC50 (HepG2)/IC50 (Mino) values.
Tested on: HepG2 cells (hepatocellular carcinoma)
Test: General cytotoxicity on HepG2 cells (CC50; therapeutic index CC50 HepG2/IC50 Mino)
Assay type: cell-based
Conditions: Table 10; therapeutic index
Answers are plain numbers.

Recorded results for 2 compounds are shown here.
1) C=CC(=O)N1CCC[C@@H](n2nc(-c3ccc(-n4ccc(=O)cc4)cc3)c3cncc(Cl)c32)C1 [BCD-BTK-30] : 3.94
2) C=CC(=O)N1CCC[C@@H](n2nc(-c3cnc(-n4ccc(=O)cc4)nc3)c3c(N)ncc(Cl)c32)C1 [BCD-BTK-74] : 4.57

# next compound below
Suppose we examine the compound C=CC(=O)N1CCC[C@@H](n2nc(-c3ccc(Oc4ccncc4)cc3)c3c(N)ncc(OC)c32)C1 [BCD-BTK-239] ; what CC50 (HepG2)/IC50 (Mino) value has been reported?
4.24

====

Assay: Permeability through the monolayer of Caco-2 cells
Format: in vitro ADME
Conditions: human, read-out: efflux (Papp B-A/Papp A-B)
PARAMETER_MEASURED: efflux ratio at 2 h, 10 μM

Worked cases, answers included:
1) C=CC(=O)N1CCC[C@@H](n2nc(-c3ccc(C(=O)Nc4ccccn4)cc3)c3c(N)ncc(Cl)c32)C1 [BCD-BTK-238] : 0.71
2) C=CC(=O)N1CCC[C@@H](n2nc(-c3ccc(C(=O)Nc4cc(C(F)(F)F)ccn4)cc3)c3c(N)ncc(Cl)c32)C1 [BCD-BTK-251] : 0.2
3) C=CC(=O)N1CCC[C@@H](n2nc(-c3ccc(Oc4ccncc4)cc3)c3cncc(Cl)c32)C1 [BCD-BTK-125] : 0.6

What efflux ratio at 2 h, 10 μM value was documented for this compound, C=CC(=O)N1CCC[C@@H](n2nc(-c3ccc(Oc4cccnc4C#N)cc3)c3c(N)ncc(Cl)c32)C1 [BCD-BTK-236] ?
0.44

====

Assay: General cytotoxicity on HepG2 cells (CC50; therapeutic index CC50 HepG2/IC50 Mino)
Format: cell-based
Conditions: human, HepG2 cells (hepatocellular carcinoma); Table 10; 72 hours, Alamar Blue; average of several tests
PARAMETER_MEASURED: CC50 at 72 h

Please review the entries below; each comes with its answer.
1. C=CC(=O)N1CC[C@@H](n2nc(-c3ccc(Oc4ccncc4)cc3)c3cncc(Cl)c32)C1 [BCD-BTK-272] : 17.6 µM
2. C=CC(=O)Oc1cnc2c(c(-c3ccc(-n4ccc(=O)cc4)cc3)nn2[C@@H]2CCCN(C(=O)C=C)C2)c1Cl [BCD-BTK-136] : > 100 µM

Please look at the items below and tell me CC50 at 72 h for each one, in order.
1. C=CC(=O)N1CCC[C@@H](n2nc(-c3ccc(C(=O)Nc4ccccn4)cc3)c3c(N)ncc(Cl)c32)C1 [BCD-BTK-238]
2. C=CC(=O)N1CCC[C@@H](n2nc(-c3cnc(C(=O)Nc4ccccn4)nc3)c3cncc(Cl)c32)C1 [BCD-BTK-229]
3. C=CC(=O)N1CCC[C@@H](n2nc(-c3ccc(Oc4cccnc4C#N)cc3)c3cncc(Cl)c32)C1 [BCD-BTK-218]
4. C=CC(=O)N1CCC[C@@H](n2nc(-c3ccc(C(=O)Nc4cc(C(F)(F)CCC)ccn4)cc3)c3cncc(C#N)c32)C1 [BCD-BTK-268]
5. C=CC(=O)N1CCC[C@@H](n2nc(-c3ccc(C(=O)Nc4cc(C(C)(F)F)ccn4)cc3)c3cncc(C#N)c32)C1 [BCD-BTK-224]
6. C=CC(=O)N1CCC[C@@H](n2nc(-c3ccc(Oc4cncc(C(N)=O)c4)cc3)c3cncc(F)c32)C1 [BCD-BTK-274]
7. C=CC(=O)N1CCC[C@@H](n2nc(-c3ccc(-n4ccc(=O)cc4)nc3)c3c(N)ncc(Cl)c32)C1 [BCD-BTK-76]

24.8 µM
> 100 µM
26.2 µM
> 100 µM
73.1 µM
38 µM
> 100 µM

Dear colleague, could you send me CC50 at 72 h for each of the items below? Thanks.
1. C=CC(=O)N1CC(Cn2nc(-c3ccc(Oc4ccncc4)cc3)c3cncc(Cl)c32)C1 [BCD-BTK-264]
2. C=CC(=O)N1CCC[C@@H](n2nc(-c3ccc(C(=O)Nc4ccccn4)cc3)c3cncc(Cl)c32)C1 [BCD-BTK-201]
3. C=CC(=O)N1CCC[C@@H](n2nc(-c3ccc(C(=O)Nc4ncccc4F)cc3)c3cncc(F)c32)C1 [BCD-BTK-249]
4. C=CC(=O)N1CCC[C@@H](n2nc(-c3ccc(-n4ccc(=O)cc4)c(F)c3)c3cncc(Cl)c32)C1 [BCD-BTK-205]

["10.5 µM", "> 50 µM", "~100 µM", "57.2 µM"]

Endpoint output: CC50 at 72 h of C=CC(=O)N1CCC[C@@H](n2nc(-c3ccc(C(=O)Nc4cc(C(F)(F)F)ccn4)cc3)c3c(N)ncc(Cl)c32)C1 [BCD-BTK-251] . Value?
> 50 µM
